Where do these numbers come from? They come from ChEMBL document CHEMBL5528042.

Test: Intrinsic clearance in human hepatocyte assessed per 10^6 cells
Assay type: ADME, cell-based
Conditions: hepatocytes, read-out: CLH
assay.metric: hepatocyte CLint

Below: 4 molecules and their reported hepatocyte CLint.
Reported hepatocyte CLint, molecule CO[C@H]1CC[C@H](n2c(=O)n(C)c3cnc4ccc(-c5ccc(OCCCN(C)C)cc5)cc4c32)C1 : ____
8.7 µL/min/1e6 cells

GET /values?readout=hepatocyte CLint&item= CC(C)n1c(=O)n(C)c2cnc3cc(F)c(-c4ccc(N5CCC(N(C)C)CC5)nc4)cc3c21
2.4 µL/min/1e6 cells

Reported hepatocyte CLint, molecule CC(C)n1c(=O)n(C)c2cnc3ccc(-c4ccc(OCCCCN(C)C)nc4)cc3c21 : ____
2.1 µL/min/1e6 cells

hepatocyte CLint lookup needed for COCc1ccc(-c2ccc3ncc4c(c3c2)n([C@@H]2CC[C@@H](OC)C2)c(=O)n4C)cn1 (relative stereo) , thanks.
5.3 µL/min/1e6 cells

Others:
Tell me the measured hepatocyte CLint of CC(C)n1c(=O)n(C)c2cnc3ccc(-c4ccc(N5CC(N(C)C)C5)nc4)cc3c21 , please.
4.8 µL/min/1e6 cells

I am curious: what hepatocyte CLint value has been reported for CC(C)n1c(=O)n(C)c2cnc3ccc(-c4ccc(N5CC6(CN(C)C6)C5)nc4)cc3c21 ?
< 1 µL/min/1e6 cells

Suppose we examine the molecule CC(C)n1c(=O)n(C)c2cnc3ccc(-c4ccc(OCCCN5CC[C@H](F)C5)nc4)cc3c21 ; what hepatocyte CLint value has been reported?
7.2 µL/min/1e6 cells

GET /values?readout=hepatocyte CLint&item= CC(C)n1c(=O)n(C)c2cnc3cc(F)c(-c4ccc(N5CCN(C)CC5)nc4)cc3c21
6.5 µL/min/1e6 cells

What does the record list as hepatocyte CLint for CC(C)n1c(=O)n(C)c2cnc3ccc(-c4ccc(OCCCN5CCCCC5)nc4)cc3c21 ?
2.4 µL/min/1e6 cells

---

Assay: Dissociation constant, pKa of compound
Format: physicochemical
assay.metric: pKa
Write the value as a bare number.

Which pKa reading was recorded for the molecule CC(C)n1c(=O)n(C)c2cnc3ccc(-c4ccc(N5CC[C@@H](N(C)C)C5)nc4)cc3c21 ?
7.9

---
Suppose we examine the molecule CC(C)n1c(=O)n(C)c2cnc3ccc(-c4ccc(N5CC(N(C)C)C5)nc4)cc3c21 ; what pKa value has been reported?
7.1

Sample CC(C)n1c(=O)n(C)c2cnc3cc(F)c(-c4ccc(N5CCN(C)CC5)nc4)cc3c21 — what was its pKa?
7.8

Requested field: pKa. Item: CC(C)n1c(=O)n(C)c2cnc3cc(F)c(-c4ccc(N5CCC(N(C)C)CC5)nc4)cc3c21
9.1

---

Assay: Lipophilicity, logD of the compound at pH 7.4
Type: physicochemical
Details: buffer
assay.metric: logD
Please give only the number in your answer, with no unit.

Look up logD: COCc1ccc(-c2ccc3ncc4c(c3c2)n(C(C)C)c(=O)n4C)cn1
2.7

Look at this compound and give its reported logD. Cn1c(=O)n(C2CCOCC2)c2c3cc(-c4cccnc4)ccc3ncc21
2.2

Look at this compound and give its reported logD. CO[C@H]1CC[C@H](n2c(=O)n(C)c3cnc4ccc(-c5ccc(OCCCN(C)C)cc5)cc4c32)C1
2.7

Given the compound CC(C)n1c(=O)n(C)c2cnc3ccc(-c4ccc(O[C@H]5CCN(C)C5)nc4)cc3c21 , what is its reported logD?
2.4

New cases:
Entry CC(C)n1c(=O)n(C)c2cnc3cc(F)c(-c4ccc(N5CCC(N(C)C)CC5)nc4)cc3c21 has what logD?
2.4

Query: logD; subject: CC(C)n1c(=O)n(C)c2cnc3ccc(-c4ccc(OCCCN5CCCCC5)nc4)cc3c21
2.6

---

Molecular target: Serine/threonine-protein kinase ATR (Homo sapiens)
Sequence (Q13535 whole entry): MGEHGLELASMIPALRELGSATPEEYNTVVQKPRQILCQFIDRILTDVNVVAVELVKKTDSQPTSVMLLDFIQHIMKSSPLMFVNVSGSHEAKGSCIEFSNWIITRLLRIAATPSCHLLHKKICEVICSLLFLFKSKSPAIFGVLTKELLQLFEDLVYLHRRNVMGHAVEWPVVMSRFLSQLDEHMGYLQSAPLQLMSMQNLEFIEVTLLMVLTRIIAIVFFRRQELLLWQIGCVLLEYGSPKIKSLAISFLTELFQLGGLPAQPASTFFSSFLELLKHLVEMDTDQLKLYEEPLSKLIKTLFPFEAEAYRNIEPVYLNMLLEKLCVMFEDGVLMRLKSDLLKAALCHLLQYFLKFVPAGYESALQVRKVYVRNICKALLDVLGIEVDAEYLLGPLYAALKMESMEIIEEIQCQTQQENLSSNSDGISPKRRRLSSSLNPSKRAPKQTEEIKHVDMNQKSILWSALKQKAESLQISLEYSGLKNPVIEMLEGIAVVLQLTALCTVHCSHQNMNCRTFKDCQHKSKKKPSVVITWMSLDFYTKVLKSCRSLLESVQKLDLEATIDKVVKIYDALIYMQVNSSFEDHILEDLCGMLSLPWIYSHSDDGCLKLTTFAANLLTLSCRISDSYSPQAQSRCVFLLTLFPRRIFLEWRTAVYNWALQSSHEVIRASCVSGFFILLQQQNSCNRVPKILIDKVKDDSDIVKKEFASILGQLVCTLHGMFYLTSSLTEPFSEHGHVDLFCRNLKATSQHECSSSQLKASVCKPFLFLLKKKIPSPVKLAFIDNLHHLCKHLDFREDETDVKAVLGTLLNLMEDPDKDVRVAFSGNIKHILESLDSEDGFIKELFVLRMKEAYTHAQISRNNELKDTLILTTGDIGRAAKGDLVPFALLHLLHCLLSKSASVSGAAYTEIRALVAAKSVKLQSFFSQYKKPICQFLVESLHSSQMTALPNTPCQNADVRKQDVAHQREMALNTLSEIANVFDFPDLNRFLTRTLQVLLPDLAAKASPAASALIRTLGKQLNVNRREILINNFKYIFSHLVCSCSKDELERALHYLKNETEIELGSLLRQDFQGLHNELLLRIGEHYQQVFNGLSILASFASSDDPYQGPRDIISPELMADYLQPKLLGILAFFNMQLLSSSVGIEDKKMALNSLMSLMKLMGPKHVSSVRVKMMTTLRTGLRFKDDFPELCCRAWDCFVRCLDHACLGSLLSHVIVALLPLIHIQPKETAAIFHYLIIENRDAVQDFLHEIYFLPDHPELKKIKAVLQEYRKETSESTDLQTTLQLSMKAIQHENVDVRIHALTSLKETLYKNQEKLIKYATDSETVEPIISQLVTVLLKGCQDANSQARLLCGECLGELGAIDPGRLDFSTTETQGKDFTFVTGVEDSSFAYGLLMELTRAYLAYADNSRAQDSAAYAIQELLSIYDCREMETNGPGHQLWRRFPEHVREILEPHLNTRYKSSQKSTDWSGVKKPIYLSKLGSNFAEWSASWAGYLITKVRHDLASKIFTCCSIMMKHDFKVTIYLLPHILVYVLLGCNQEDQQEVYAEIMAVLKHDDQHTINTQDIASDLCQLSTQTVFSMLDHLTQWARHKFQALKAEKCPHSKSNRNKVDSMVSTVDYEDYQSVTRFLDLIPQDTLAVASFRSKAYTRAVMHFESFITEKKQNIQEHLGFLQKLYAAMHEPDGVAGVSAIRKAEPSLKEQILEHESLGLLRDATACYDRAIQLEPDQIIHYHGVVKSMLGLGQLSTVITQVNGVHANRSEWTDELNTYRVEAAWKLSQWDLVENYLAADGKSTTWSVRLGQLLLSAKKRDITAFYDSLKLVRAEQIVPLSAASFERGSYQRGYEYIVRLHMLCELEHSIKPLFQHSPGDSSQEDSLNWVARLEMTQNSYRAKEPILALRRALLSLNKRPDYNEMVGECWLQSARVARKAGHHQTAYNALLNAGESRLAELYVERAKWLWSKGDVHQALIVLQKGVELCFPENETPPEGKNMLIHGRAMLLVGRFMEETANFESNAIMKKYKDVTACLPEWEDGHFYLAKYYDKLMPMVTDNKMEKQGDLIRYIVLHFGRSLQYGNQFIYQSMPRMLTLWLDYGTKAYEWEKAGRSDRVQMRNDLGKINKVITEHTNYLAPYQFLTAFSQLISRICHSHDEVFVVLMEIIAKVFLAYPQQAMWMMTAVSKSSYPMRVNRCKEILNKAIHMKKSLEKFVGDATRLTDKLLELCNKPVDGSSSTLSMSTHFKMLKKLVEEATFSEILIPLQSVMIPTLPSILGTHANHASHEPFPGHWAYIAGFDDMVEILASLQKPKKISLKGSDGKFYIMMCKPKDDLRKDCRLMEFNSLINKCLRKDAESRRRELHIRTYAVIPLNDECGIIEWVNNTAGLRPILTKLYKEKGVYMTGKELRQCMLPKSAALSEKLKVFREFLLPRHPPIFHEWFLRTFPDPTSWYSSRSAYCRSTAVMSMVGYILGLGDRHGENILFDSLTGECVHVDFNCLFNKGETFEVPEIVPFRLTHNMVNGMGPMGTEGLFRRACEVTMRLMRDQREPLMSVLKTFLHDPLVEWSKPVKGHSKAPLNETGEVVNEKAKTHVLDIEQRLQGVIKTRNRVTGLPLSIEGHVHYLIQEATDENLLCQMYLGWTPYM
Experiment: Inhibition of ATR in human HT-29 cells incubated for 2 hrs by Alexa Fluor 488/Hoeschst staining based plate reader assay
Parameter: IC50. Scope: all listed entries.

IC50 lookup needed for CC(C)n1c(=O)n(C)c2cnc3ccc(-c4ccc(OCCCN(C)C)nc4)cc3c21 , thanks.
> 20 µM

New cases:
Reported IC50, compound CC(C)n1c(=O)n(C)c2cnc3ccc(-c4ccc(OCCCCN(C)C)nc4)cc3c21 : ____
> 15.8 µM

Value lookup for IC50; key = CN(C)CCCOc1ccc(-c2ccc3ncc4c(c3c2)n([C@@H]2CCCOC2)c(=O)n4C)cc1
> 31.6 µM

What does the record list as IC50 for CC(C)n1c(=O)n(C)c2cnc3cc(F)c(-c4ccc(N5CCC(N(C)C)CC5)nc4)cc3c21 ?
> 31.6 µM

Dear colleague, I am looking for the recorded IC50 of the following compound: CC(C)n1c(=O)n(C)c2cnc3ccc(-c4ccc(OCCCN(C)C)cc4)cc3c21
> 31.6 µM

Record request: IC50 value, item CC(C)n1c(=O)n(C)c2cnc3cc(F)c(-c4ccc(OCCCN(C)C)nc4)cc3c21
> 31.6 µM

Report IC50 for CC(C)n1c(=O)n(C)c2cnc3cc(F)c(-c4ccc(OCCCN5CCCCC5)nc4)cc3c21 [AZD-1390] please.
> 31.6 µM

Could you tell me which IC50 is on file for CC(C)n1c(=O)n(C)c2cnc3cc(F)c(-c4ccc(N5CCN(C)CC5)nc4)cc3c21 ?
> 31.6 µM

Data request, read-out IC50, for CC(C)n1c(=O)n(C)c2cnc3ccc(-c4ccc(OC[C@@H]5CCN(C)C5)nc4)cc3c21
> 31.6 µM

---

Form field: solubility (one value per entry).
Assay: Aqueous solubility of the compound in pH 7.4
Type: physicochemical
Settings: buffer
Report the value in µM with no unit label.

I would be grateful if you could share the reported solubility for CO[C@H]1CC[C@H](n2c(=O)n(C)c3cnc4ccc(-c5ccc(OCCCN(C)C)cc5)cc4c32)C1 .
604

Which solubility value is on record for COCc1ccc(-c2ccc3ncc4c(c3c2)n([C@H]2C[C@@H](CO)C2)c(=O)n4C)cn1 ?
990

Return reported solubility; argument: CC(C)n1c(=O)n(C)c2cnc3cc(F)c(-c4ccc(OCCCN(C)C)nc4)cc3c21
680

Fill in: solubility of CC(C)n1c(=O)n(C)c2cnc3ccc(-c4ccc(OCCCCN(C)C)nc4)cc3c21 is ___
39

So what does the record say about solubility for COCc1ccc(-c2ccc3ncc4c(c3c2)n([C@@H]2CC[C@@H](OC)C2)c(=O)n4C)cn1 (relative stereo) ?
789

Next:
State the recorded solubility for this entry: COCc1ccc(-c2ccc3ncc4c(c3c2)n([C@@H]2CCOCC2(C)C)c(=O)n4C)cn1
521

// query solubility value for entry COCc1ccc(-c2ccc3ncc4c(c3c2)n(C2CCOCC2)c(=O)n4C)cn1
19

Form field: reported solubility of CN(C)CCCOc1ccc(-c2ccc3ncc4c(c3c2)n([C@@H]2CCCOC2)c(=O)n4C)cc1
851

---

Experiment: Apparent permeability across apical to basolateral side in dog MDCKII-MDR1 cells overexpressing BCRP at 1 uM incubated for 90 mins by LC-MS/MS analysis
Type: ADME, cell-based, Canis lupus familiaris, MDCK-MDR1
Rule: Papp A→B at […], 1 µM of 20 ×10⁻⁶ cm/s or more gives true (1); anything lower gives false (0).

Entry CC(C)n1c(=O)n(C)c2cnc3ccc(-c4ccc(OCCN(C)C)nc4)cc3c21 : is its Papp A→B at […], 1 µM no less than 20 ×10⁻⁶ cm/s?
true (1)

Does Papp A→B at […], 1 µM meet or surpass 20 ×10⁻⁶ cm/s for CC(C)n1c(=O)n(C)c2cnc3ccc(-c4ccc(OCCCN(C)C)cc4)cc3c21 ?
true (1)

// inclusive: Papp A→B at […], 1 µM at least 20 ×10⁻⁶ cm/s? input: CC(C)n1c(=O)n(C)c2cnc3ccc(-c4ccc(OCCCN5CCCCC5)nc4)cc3c21
true (1)

Check the entry CC(C)n1c(=O)n(C)c2cnc3ccc(-c4ccc(N5CC[C@H](N(C)C)C5)nc4)cc3c21 : does Papp A→B at […], 1 µM equal or exceed 20 ×10⁻⁶ cm/s?
true (1)

Is Papp A→B at […], 1 µM at least 20 ×10⁻⁶ cm/s? Consider CC(C)n1c(=O)n(C)c2cnc3ccc(-c4ccc(N5CC(N(C)C)C5)nc4)cc3c21
true (1)

Quick check, Papp A→B at […], 1 µM >= 20 ×10⁻⁶ cm/s? CC(C)n1c(=O)n(C)c2cnc3cc(F)c(-c4ccc(N5CCN(C)CC5)nc4)cc3c21
false (0)

State whether the measured Papp A→B at […], 1 µM reaches 20 ×10⁻⁶ cm/s, counting equality as reaching it, for CN(C)CCCOc1ccc(-c2ccc3ncc4c(c3c2)n([C@@H]2CCCOC2)c(=O)n4C)cc1
true (1)

Papp A→B at […], 1 µM >= 20 ×10⁻⁶ cm/s for CC(C)n1c(=O)n(C)c2cnc3cc(F)c(-c4ccc(OCCCN5CCCCC5)nc4)cc3c21 [AZD-1390] ?
true (1)

Given CC(C)n1c(=O)n(C)c2cnc3ccc(-c4ccc(OCCCN5CCCC5)nc4)cc3c21 , state whether its Papp A→B at […], 1 µM is at least 20 ×10⁻⁶ cm/s.
true (1)

Say whether COCc1ccc(-c2ccc3ncc4c(c3c2)n([C@H]2CCCOC2)c(=O)n4C)cn1 shows Papp A→B at […], 1 µM of 20 ×10⁻⁶ cm/s or more.
true (1)

Say whether CC(C)n1c(=O)n(C)c2cnc3ccc(-c4ccc(OC[C@@H]5CCN(C)C5)nc4)cc3c21 shows Papp A→B at […], 1 µM of 20 ×10⁻⁶ cm/s or more.
true (1)

Exam item: decide whether the reported Papp A→B at […], 1 µM for CC(C)n1c(=O)n(C)c2cnc3ccc(-c4ccc(O[C@H]5CCN(C)C5)nc4)cc3c21 is at least 20 ×10⁻⁶ cm/s.
true (1)

In plain terms: is recorded Papp A→B at […], 1 µM at least 20 ×10⁻⁶ cm/s for CC(C)n1c(=O)n(C)c2cnc3cc(F)c(-c4ccc(OCCCN(C)C)nc4)cc3c21 ?
true (1)

Dear colleague, could you confirm whether Cn1c(=O)n(C2CCOCC2)c2c3cc(-c4ccc(OCCCN5CCCCC5)cc4)ccc3ncc21 has Papp A→B at […], 1 µM at or above 20 ×10⁻⁶ cm/s?
false (0)

Given the entry COCc1ccc(-c2ccc3ncc4c(c3c2)n([C@H]2C[C@@H](CO)C2)c(=O)n4C)cn1 , answer whether its Papp A→B at […], 1 µM meets or surpasses 20 ×10⁻⁶ cm/s.
false (0)

Given CC(C)n1c(=O)n(C)c2cnc3cc(F)c(-c4ccc(N5CCC(N(C)C)CC5)nc4)cc3c21 , state whether its Papp A→B at […], 1 µM is at least 20 ×10⁻⁶ cm/s.
true (1)

Decide: is the reported value of Papp A→B at […], 1 µM for CC(C)n1c(=O)n(C)c2cnc3ccc(-c4ccc(N5CC6(CN(C)C6)C5)nc4)cc3c21 equal to or greater than 20 ×10⁻⁶ cm/s?
false (0)

API: above_or_equal(metric=Papp A→B at […], 1 µM, cutoff=20 ×10⁻⁶ cm/s) for item CO[C@H]1CC[C@H](n2c(=O)n(C)c3cnc4ccc(-c5ccc(OCCCN(C)C)cc5)cc4c32)C1
false (0)

Please check the record CC(C)n1c(=O)n(C)c2cnc3ccc(-c4ccc(N5CC[C@@H](N(C)C)C5)nc4)cc3c21 and state if its Papp A→B at […], 1 µM is at or above 20 ×10⁻⁶ cm/s.
true (1)

Kindly determine if Papp A→B at […], 1 µM recorded for CC(C)n1c(=O)n(C)c2cnc3ccc(-c4ccc(OCCCN(C)C)nc4)cc3c21 is above or exactly 20 ×10⁻⁶ cm/s.
true (1)

Is Papp A→B at […], 1 µM for CC(C)n1c(=O)n(C)c2cnc3ccc(-c4ccc(OCCCN5CCC(F)CC5)nc4)cc3c21 at or above 20 ×10⁻⁶ cm/s?
false (0)

Record COCc1ccc(-c2ccc3ncc4c(c3c2)n([C@@H]2CC[C@@H](OC)C2)c(=O)n4C)cn1 (relative stereo) ; criterion: Papp A→B at […], 1 µM no lower than 20 ×10⁻⁶ cm/s. Met?
true (1)
